Assay: Subcutaneous pharmacokinetics in rats
Type: in vivo, male Wistar rats
Conditions: male, Wistar, sc; s.c. 3 mg/kg; rat plasma; analyte prodrug; read-out: AUClast of prodrug
quantity.measured: AUC(0-t) (ng·h/mL)
Note: unit ng·h/mL is implicit; provide only the numeric part.

I would be grateful if you could share the reported AUC(0-t) for `Cc1c(Cl)c(C)[n+]([O-])c(Cl)c1-c1noc(-c2cc(OP(=O)(O)O)c(O)c([N+](=O)[O-])c2)n1` .
15500

--- query ---
Please look up its AUC(0-t): `Cc1c(Cl)c(C)[n+]([O-])c(Cl)c1-c1noc(-c2cc(OCOP(=O)(O)O)c(O)c([N+](=O)[O-])c2)n1`
9660
